Please provide measured TA (time to torpor between injection and first stage of sleep) for the entries that follow.
Test system: JA 657 chicks
testMethodNotes: Chick sleep/sedation test (IM injection, 90 minute observation)
Type: in vivo
settings: Dose: 1 mg/kg, 90 min observation
Protocol: The dihydroimidazo[5,1-a]-β-carboline derivatives of the invention, in particular those in the form of the methyl sulfonate, (soluble), were tested in chicks, and certain compounds that were active in the chick were administered in single doses to six Beagle dogs of both sexes for a polysomnographic study of at least 4 hours duration. […] To compare the results of tests carried out at different dates, the extension of the duration of the first sleep TS compared with the test controls was recorded.
Please answer in the form of a number followed by its unit of measurement.

## Task Find the recorded TA (time to torpor between injection and first stage of sleep) belonging to CS(=O)(=O)O.Cc1ncc2n1CCc1c-2n(C)c2ccccc12 [Example 1] and report it.
## Result 7 min

## Task Find the recorded TA (time to torpor between injection and first stage of sleep) belonging to CCc1nc(C)n2c1-c1[nH]c3ccc(OC)cc3c1CC2 [Example 5] and report it.
## Result 20.5 min

## Task Find the recorded TA (time to torpor between injection and first stage of sleep) belonging to COc1ccc2c(c1)c1c(n2C)-c2cnc(C)n2CC1.CS(=O)(=O)O [Example 9] and report it.
## Result 22 min

## Task Find the recorded TA (time to torpor between injection and first stage of sleep) belonging to CCn1c2c(c3cc(C)ccc31)CCn1c-2cnc1C.CS(=O)(=O)O [Example 20] and report it.
## Result 2 min

## Task Find the recorded TA (time to torpor between injection and first stage of sleep) belonging to CCn1c2c(c3ccccc31)CCn1c-2cnc1C.CS(=O)(=O)O [Example 15] and report it.
## Result 12.5 min

====

Please provide measured TA (time to torpor between injection and first stage of sleep) for the entries that follow.
Tested on: JA 657 chicks
testMethodNotes: Chick sleep/sedation test (IM injection, 90 minute observation)
Type: in vivo
settings: Dose: 1 mg/kg, 90 min observation
Method: The dihydroimidazo[5,1-a]-β-carboline derivatives of the invention, in particular those in the form of the methyl sulfonate, (soluble), were tested in chicks, and certain compounds that were active in the chick were administered in single doses to six Beagle dogs of both sexes for a polysomnographic study of at least 4 hours duration. […] To compare the results of tests carried out at different dates, the extension of the duration of the first sleep TS compared with the test controls was recorded.
The response must be a number in min with no trailing unit.

## Task Find the recorded TA (time to torpor between injection and first stage of sleep) belonging to `CS(=O)(=O)O.Cc1ncc2n1CCc1c-2n(C)c2ccc(Cl)cc12` and report it.
## Result 11.5

## Task Find the recorded TA (time to torpor between injection and first stage of sleep) belonging to `CS(=O)(=O)O.Cc1ncc2n1CCc1c-2[nH]c2ccc(Cl)cc12` and report it.
## Result 16.5

## Task Find the recorded TA (time to torpor between injection and first stage of sleep) belonging to `COc1ccc2[nH]c3c(c2c1)CCn1c(C)nc(-c2ccccc2)c1-3` and report it.
## Result 16.5

## Task Find the recorded TA (time to torpor between injection and first stage of sleep) belonging to `COc1ccc2[nH]c3c(c2c1)CCn1c-3cnc1C(C)C` and report it.
## Result 11

## Task Find the recorded TA (time to torpor between injection and first stage of sleep) belonging to `CCCc1ncc2n1CCc1c-2n(C)c2ccc(OC)cc12.CS(=O)(=O)O` and report it.
## Result 16

## Task Find the recorded TA (time to torpor between injection and first stage of sleep) belonging to `COc1ccc2[nH]c3c(c2c1)CCn1c-3cnc1C.CS(=O)(=O)O` and report it.
## Result 16

## Task Find the recorded TA (time to torpor between injection and first stage of sleep) belonging to `CS(=O)(=O)O.Cc1ccc2[nH]c3c(c2c1)CCn1c-3cnc1C` and report it.
## Result 5

## Task Find the recorded TA (time to torpor between injection and first stage of sleep) belonging to `CS(=O)(=O)O.Cc1ccc2c(c1)c1c(n2C)-c2cnc(C)n2CC1` and report it.
## Result 4

## Task Find the recorded TA (time to torpor between injection and first stage of sleep) belonging to `CS(=O)(=O)O.Cc1ncc2n1CCc1c-2[nH]c2ccccc12` and report it.
## Result 10

====

Test system: JA 657 chicks
testMethodNotes: Chick sleep/sedation test (IM injection, 90 minute observation)
Format: in vivo
settings: Dose: 10 mg/kg, 90 min observation
Please provide measured TS (duration of the first sleep) for the entries that follow.
Please answer in the form of a number followed by its unit of measurement.

## Task Find the recorded TS (duration of the first sleep) belonging to `CCc1nc(C)n2c1-c1[nH]c3ccc(OC)cc3c1CC2` and report it.
## Result 40.5 min

## Task Find the recorded TS (duration of the first sleep) belonging to `COc1ccc2c(c1)c1c(n2C)-c2cnc(C)n2CC1.CS(=O)(=O)O` and report it.
## Result 15.5 min

## Task Find the recorded TS (duration of the first sleep) belonging to `COc1ccc2[nH]c3c(c2c1)CCn1c-3cnc1C(C)C` and report it.
## Result 72.5 min

## Task Find the recorded TS (duration of the first sleep) belonging to `CS(=O)(=O)O.Cc1ccc2c(c1)c1c(n2C)-c2cnc(C)n2CC1` and report it.
## Result 60 min

## Task Find the recorded TS (duration of the first sleep) belonging to `COc1ccc2[nH]c3c(c2c1)CCn1cncc1-3` and report it.
## Result 77.5 min

## Task Find the recorded TS (duration of the first sleep) belonging to `CS(=O)(=O)O.Cc1ncc2n1CCc1c-2[nH]c2ccc(Cl)cc12` and report it.
## Result 86 min

## Task Find the recorded TS (duration of the first sleep) belonging to `CCn1c2c(c3cc(C)ccc31)CCn1c-2cnc1C.CS(=O)(=O)O` and report it.
## Result 87.5 min

## Task Find the recorded TS (duration of the first sleep) belonging to `CS(=O)(=O)O.Cc1ncc2n1CCc1c-2[nH]c2ccc(O)cc12` and report it.
## Result 9.5 min

## Task Find the recorded TS (duration of the first sleep) belonging to `CCn1c2c(c3ccccc31)CCn1c-2cnc1C.CS(=O)(=O)O` and report it.
## Result 70 min

====

Test system: JA 657 chicks
testMethodNotes: Chick sleep/sedation test (IM injection, 90 minute observation)
Format: in vivo
settings: Dose: 10 mg/kg, 90 min observation
Where TS (duration of the first sleep) equals or exceeds 40 min, the correct label is rule met; where it does not, the label is rule not met.

## Task Please indicate if the recorded TS (duration of the first sleep) for `COc1ccc2[nH]c3c(c2c1)CCn1c-3cnc1C.CS(=O)(=O)O` meets or exceeds 40 min.
## Result rule met

## Task Please indicate if the recorded TS (duration of the first sleep) for `CCn1c2c(c3cc(Cl)ccc31)CCn1c-2cnc1C.CS(=O)(=O)O` meets or exceeds 40 min.
## Result rule met

## Task Please indicate if the recorded TS (duration of the first sleep) for `CS(=O)(=O)O.Cc1ncc2n1CCc1c-2n(C)c2ccc(Cl)cc12` meets or exceeds 40 min.
## Result rule not met

## Task Please indicate if the recorded TS (duration of the first sleep) for `CS(=O)(=O)O.Cc1ncc2n1CCc1c-2n(C)c2ccccc12` meets or exceeds 40 min.
## Result rule met

## Task Please indicate if the recorded TS (duration of the first sleep) for `CS(=O)(=O)O.Cc1ncc2n1CCc1c-2[nH]c2ccccc12` meets or exceeds 40 min.
## Result rule met

## Task Please indicate if the recorded TS (duration of the first sleep) for `CS(=O)(=O)O.Cc1ncc2n1CCc1c-2n(C)c2ccc(O)cc12` meets or exceeds 40 min.
## Result rule not met

## Task Please indicate if the recorded TS (duration of the first sleep) for `CCCc1ncc2n1CCc1c-2[nH]c2ccc(OC)cc12` meets or exceeds 40 min.
## Result rule not met

## Task Please indicate if the recorded TS (duration of the first sleep) for `COc1ccc2[nH]c3c(c2c1)CCn1c-3cnc1-c1ccccc1` meets or exceeds 40 min.
## Result rule not met

## Task Please indicate if the recorded TS (duration of the first sleep) for `CS(=O)(=O)O.Cc1ccc2[nH]c3c(c2c1)CCn1c-3cnc1C` meets or exceeds 40 min.
## Result rule met

## Task Please indicate if the recorded TS (duration of the first sleep) for `COc1ccc2[nH]c3c(c2c1)CCn1c(C)nc(-c2ccccc2)c1-3` meets or exceeds 40 min.
## Result rule met
